- System: A549/ATCC NSCLC
- Test Summary: NCI-60 one-dose screen, 48 h (100 = growth as untreated, 0 = no growth, -100 = all killed)
- Recorded Conditions: 10 µM unless noted
Compounds without any hit were thinned out: in the full panel of roughly 83,000, 20% have a hit.
Assignment: determine reported growth for the given compounds.
Give bare numbers, in %.

// worked examples, growth included
CCOC(=O)C/C(=N\Nc1cc(=O)[nH]c2ccc(Cl)cc12)C(=O)OCC	100
Cc1cc(C(=O)Nc2cc(Nc3ncccc3-c3ncnc4nc[nH]c34)ccc2F)cc(C(F)(F)F)c1	55.7
O=C1NC(=Nc2ccc(O)cc2)S/C1=C\c1cccs1	35.4
CCCCC(=O)Nc1ncc(Cc2ccccc2Cl)s1	40.9
O=C1NC(=O)c2c1c1c3ccccc3[nH]c1c1oc3ccc(F)cc3c21	86

Consider the following items and state reported growth for each.
1. CCCCCSB(SCCCCC)c1ccccc1
2. CCC/C(=N\NC(N)=O)C(OC)OC
3. CN(C)c1ccc(-c2cc(-c3ccc(Nc4nc(Nc5ccc(Cl)cc5)nc(Nc5ccc(Cl)cc5)n4)cc3)nc(N)c2C#N)cc1
4. N=c1sc(Cc2cc(Cl)ccc2Cl)cn1CC(=O)c1ccccc1
5. CC(C)(CO)N(CCO)CCO
6. C=C1C(=O)O[C@H]2[C@H]1CC/C(COC(=O)/C=C\C(=O)NCc1ccc(Cn3c(=O)sn(-c4ccccc4)c3=O)cc1)=C\CC[C@@]1(C)O[C@@H]21

1: 92.4; 2: 93.6; 3: 72.3; 4: 30; 5: 114; 6: 98

Consider the following items and state reported growth for each.
1. Cc1ccc(-c2nc(C#N)c(S(=O)(=O)NCCO)o2)cc1
2. CN1CCN(CCCOC(=O)c2c3c(n4ccccc24)C(=O)c2ncccc2C3=O)CC1
3. N#CC(C#N)N=Nc1ccc(Cl)cc1Cl
4. CO[C@H](C(=O)[C@@H](O)[C@@H](C)O)[C@@H]1Cc2cc3cc(O[C@H]4C[C@@H](O[C@H]5C[C@@H](O)[C@H](O)C(C)O5)[C@H](O)C(C)O4)c(C)c(O)c3c(O)c2C(=O)[C@H]1O[C@H]1C[C@@H](O[C@H]2C[C@@H](O[C@H]3C[C@@H](OC)[C@H](O)C(C)O3)[C@@H](O)C(C)O2)C(O)(O)C(C)O1 (stereo partly drawn)

1. 90
2. -47.9
3. 105
4. 3.64

Consider the following items and state reported growth for each.
1. N/C(=N\c1nc2ccccc2s1)NC(=NC1CCCCC1)NC1CCCCC1
2. CCc1ccc(CCC(=O)Nc2ncc(Cc3ccc(Cl)cc3)s2)o1
3. Cc1cc(F)ccc1S(=O)(=O)Nc1cc(-c2c(O)ccc3ccccc23)c(O)c2ccccc12
4. O=C(Nc1ccc(F)cc1)Nc1ccccc1CNc1nc(Nc2ccc(OCCN3CCCC3)cc2)ncc1Cl
5. Cc1ccc2[nH]c(-c3ccc(S(C)(=O)=O)cc3)c(/C=N/N=C(N)N)c2c1
6. COc1cccc(Nc2ccnc3[nH]c4ccc([N+](=O)[O-])cc4c23)c1
7. CC1=CCC[C@@H]2C1(C)CC[C@H](C)[C@@]2(C)CC1=CC(=O)C(SC(C)(C)C)=CC1=O (stereo partly drawn)

1. 45.9
2. 29.6
3. 20.4
4. 38.2
5. 46.2
6. 37
7. 73.3
